Study target: T1, SARS-COV-2 RBD (SARS-COV-2, UniProt P0DTC2 319-539)
T1 construct: also called WT RBD
Experiment notes: ELISA, RBD coated on plate
Answer each item with its documented EC50.
The answer is to be given in ng/mL; state only the numeric part.

-- ask Look at this binder and give its reported EC50. C915 (antibody, V domains shown) VH: QVQLQESGPGLVKPSQTLSLTCTVSGGSISSGDYYWSWIRQPPGKGLEWIGYIYYSDSTYYNPSLRTRVTISVDTSKNQFSLKLTSVTAADTAVYYCARAMITFGGVIVLYDYWGQGTLVTVSS VL: QSALTQPPSASGSPGQSVTISCTGTSSDVGGYNYVSWYQQHPGKAPKLMIYEVTKRPSGVPARFSGSKSGNTASLTVSGLQAEDEADYYCSSYAGSILLYVFGTGTKVTVL
-- reply 3.49

-- ask What about this binder? C948 (antibody, V domains shown) VH: EVQLVESGGGLVQPGGSLRLSCAASGFTFSRYDMHWVRQATGKGLEWVSIIGTAGDTYYPGSVKGRFTISRDNAKNSLFLQMNSLRAGDTAVYYCARANYDSSGYHNWFDPWGQGTLVTVSS VL: DIQMTQSPSSLSASIGDRVTITCRASQNINSYLNWYQQKPGKAPKLLIYAASSLQSGVPSRFSGSGSGTDFTLTINSLQPEDFATYYCQQSYSMPSWTFGQGTKVEI
-- reply 3.26

-- ask C1057 (antibody, V domains shown) VH: QVQLVQSGAEVKKPGSSVKVSCKASGGTFTTYIISWVRQAPGQGLEWMGGISPMLGTANYAQKFQGGVTITADESTTTAYMEMSGLRSEDTAVYYCARAHMYCSDGSCYRQSGYFDSWGQGTLVTVSS VL: QSALTQPRSVSGSPGQSVTITCTGTSSNVGGYKYVSWFQQHPGKAPKFLIYDVSERSSGVPDRFSGSKSGNTASLTISGLQAEDEADYYCCSYAGKYTVVFGGGTRLTV ?
-- reply 2.17
